Target: T1, envelope protein of the Zika virus (ZIKV E) (Zika virus), Q32ZE1
T1 chain: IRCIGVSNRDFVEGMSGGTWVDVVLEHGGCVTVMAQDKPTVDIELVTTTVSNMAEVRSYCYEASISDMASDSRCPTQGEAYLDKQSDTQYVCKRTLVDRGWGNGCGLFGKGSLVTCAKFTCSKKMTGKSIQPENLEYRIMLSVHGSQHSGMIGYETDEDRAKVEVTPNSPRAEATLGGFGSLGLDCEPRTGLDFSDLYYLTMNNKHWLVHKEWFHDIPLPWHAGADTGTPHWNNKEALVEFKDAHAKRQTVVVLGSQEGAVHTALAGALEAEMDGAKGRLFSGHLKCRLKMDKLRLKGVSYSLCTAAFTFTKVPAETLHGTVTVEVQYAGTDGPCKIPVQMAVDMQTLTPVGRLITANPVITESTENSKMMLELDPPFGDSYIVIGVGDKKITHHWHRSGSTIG
Measurement kind: Kd (nM)
Numeric only. Scale: nM

Param item = RVTQMNLNDRLASLYDKV (modifications not checked) [peptide identified in the Sequence Listing as SEQ ID NO: 1] ; retrieve measured Kd.
1590

Where these numbers come from: patent US20250282828A1
